target-under-test: bradykinin β2 receptor (Cavia porcellus)
Sequence (O70526 whole entry): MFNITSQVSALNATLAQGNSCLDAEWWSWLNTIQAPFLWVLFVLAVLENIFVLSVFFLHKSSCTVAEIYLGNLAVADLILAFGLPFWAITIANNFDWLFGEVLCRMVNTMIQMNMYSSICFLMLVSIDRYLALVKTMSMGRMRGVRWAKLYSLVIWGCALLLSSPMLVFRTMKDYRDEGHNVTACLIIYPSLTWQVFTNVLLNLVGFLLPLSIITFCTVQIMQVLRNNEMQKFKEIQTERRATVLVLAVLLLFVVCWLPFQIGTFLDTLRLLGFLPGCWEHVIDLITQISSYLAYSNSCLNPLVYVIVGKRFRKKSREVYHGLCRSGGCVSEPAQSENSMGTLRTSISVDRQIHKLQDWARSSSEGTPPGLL
pKi: −log10 of the molar value.
experimental-readout: pKi

# smiles, pKi
rows = [
    ("CCNC(=O)NCC(=O)N(C)c1ccc(Cl)c(COc2cccc3ccc(C)nc23)c1C#N", 8.08),
]

(a) CSc1ccc(N(C)C(=O)CNC(=O)/C=C/c2ccc(NC(C)=O)nc2)c(SC)c1COc1cccc2ccc(C)nc12
(b) CCNC(=O)NCC(=O)N(C)c1ccc(OC)c(COc2cccc3ccc(C)nc23)c1C#N
Between a and b , whose measured pKi reads higher? Give the chosen item's label as your response.
a

Ref: patent US6211196A
